Provenance of the data: patent US20120077957A1

molecular target: T1, human melanocortin-4 receptor (recombinant hMC4-R) (human, UniProt P32245 1-332); experiment: competition with labelled NDP-α-MSH ([I125] or Eu), hMC4-R HEK-293 membranes
T1 construct: whole, on cells; Ki assays used membrane homogenates of HEK-293 cells expressing recombinant hMC4-R; cAMP assays used HEK-293 T-REx cells induced with 0.1 ng/mL doxycycline; also called human MC4-R; MC4 receptor
T1 sequence (P32245 whole entry): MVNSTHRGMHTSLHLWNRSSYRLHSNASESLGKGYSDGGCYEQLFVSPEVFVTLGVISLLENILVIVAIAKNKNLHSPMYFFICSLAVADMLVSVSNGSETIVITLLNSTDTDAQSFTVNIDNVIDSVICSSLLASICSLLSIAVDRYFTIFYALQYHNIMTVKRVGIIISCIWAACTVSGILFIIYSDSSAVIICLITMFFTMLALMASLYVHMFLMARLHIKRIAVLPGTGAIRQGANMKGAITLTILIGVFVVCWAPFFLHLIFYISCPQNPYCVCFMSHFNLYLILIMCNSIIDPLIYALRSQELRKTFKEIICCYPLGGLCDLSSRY
Bridge positions count the residues as written; N and C are the ends. Square brackets hold non-standard residues; d marks the D form. * marks the point of attachment. Nle = CCCC[C@H](N)C(=O)O; Orn = NCCC[C@H](N)C(=O)O; Dab = NCC[C@H](N)C(=O)O; Bn = c1ccc(C*)cc1
RECORDED ENDPOINT: Ki (nM)
Numbers only, in nM.

Known Ki results, listed for orientation:
* Ac-RDA[dF]RWK-NH2 (lactam 2-7, also called Peptide Structure (Asp...Lys) in the row of No. 41) [Asp...Lys analog of peptide No. 41: Ac-Arg-cyclo(Asp-Ala-D-Phe-Arg-Trp-Lys)-NH2] | 19
* Ac-R[Orn]H[dF]RWE-OH (lactam 2-7) [Peptide No. 37: Ac-Arg-cyclo(Orn-His-D-Phe-Arg-Trp-Glu)-OH] | 12
* Ac-R[Orn]S(Bn)[dF]RWE-OH (lactam 2-7) [Peptide No. 48: Ac-Arg-cyclo(Orn-Ser(Bzl)-D-Phe-Arg-Trp-Glu)-OH] | 5
* Ac-[dR][Orn]H[dF]RWE-NH2 (lactam 2-7) [Peptide No. 39: Ac-D-Arg-cyclo(Orn-His-D-Phe-Arg-Trp-Glu)-NH2] | 4
* Ac-[dR]DQ[dF]RWK-NH2 (lactam 2-7, also called Peptide Structure (Asp...Lys) in the row of No. 45) [Asp...Lys analog of peptide No. 45: Ac-D-Arg-cyclo(Asp-Gln-D-Phe-Arg-Trp-Lys)-NH2] | 45
* Ac-KDH[dF]RWK-NH2 (lactam 2-7; SMILES CC(=O)N[C@@H](CCCCN)C(=O)N[C@H]1CC(=O)NCCCC[C@@H](C(N)=O)NC(=O)[C@H](Cc2c[nH]c3ccccc23)NC(=O)[C@H](CCCNC(=N)N)NC(=O)[C@@H](Cc2ccccc2)NC(=O)[C@H](Cc2c[nH]cn2)NC1=O, also called Peptide Structure (Asp...Lys) in the row of No. 40) [Asp...Lys analog of peptide No. 40: Ac-Lys-cyclo(Asp-His-D-Phe-Arg-Trp-Lys)-NH2] | 9
* Ac-[Nle][Orn]H[dF]RWE-OH (lactam 2-7) [Peptide No. 35: Ac-Nle-cyclo(Orn-His-D-Phe-Arg-Trp-Glu)-OH] | 1
* Ac-R[Orn]A[dF]RWE-NH2 (lactam 2-7; SMILES CC(=O)N[C@@H](CCCNC(=N)N)C(=O)N[C@H]1CCCNC(=O)CC[C@@H](C(N)=O)NC(=O)[C@H](Cc2c[nH]c3ccccc23)NC(=O)[C@H](CCCNC(=N)N)NC(=O)[C@@H](Cc2ccccc2)NC(=O)[C@H](C)NC1=O) [Peptide No. 41: Ac-Arg-cyclo(Orn-Ala-D-Phe-Arg-Trp-Glu)-NH2] | 19
* Ac-R[Orn][Dab][dF]RWE-NH2 (lactam 2-7) [Peptide No. 43: Ac-Arg-cyclo(Orn-Dab-D-Phe-Arg-Trp-Glu)-NH2] | 3

Please report Ki for the following binder: Ac-R[Orn]P[dF]RWE-NH2 (lactam 2-7) [Peptide No. 47: Ac-Arg-cyclo(Orn-Pro-D-Phe-Arg-Trp-Glu)-NH2]
5
